Would you mind telling me the reported PDI of each entry?
experiment: DLS size and polydispersity of hEPO mRNA lipid nanoparticles; type: physicochemical; conditions: Table 3, further LNPs; hEPO mRNA LNP, Cationic Lipid:DMG-PEG2000:Cholesterol:DOPE=40:1.5:28.5:30, N/P ratio 4, Process A
Output: the number by itself.

Incoming: Which PDI is reported for this compound? CCCCCCCCC(O)CN(CCCNC(=O)CC(C)(O)CC(=O)NCCCN(CC(O)CCCCCCCC)CC(O)CCCCCCCC)CC(O)CCCCCCCC (stereo not drawn) [LXXXVIII]
Outgoing: 0.134

Incoming: Which PDI is reported for this compound? CCCCCCCCCCC(O)CN(CCCOC(=O)[C@H](Cc1ccccc1)NC(=O)CCCN(CC(O)CCCCCCCCCC)CC(O)CCCCCCCCCC)CC(O)CCCCCCCCCC (stereo partly drawn) [Compound XCV]
Outgoing: 0.191

Incoming: Which PDI is reported for this compound? CCCCCCCCCCC(O)CN(CCCOC(=O)[C@H](Cc1c[nH]c2ccccc12)NC(=O)CCCN(CC(O)CCCCCCCCCC)CC(O)CCCCCCCCCC)CC(O)CCCCCCCCCC (stereo partly drawn) [Compound CI]
Outgoing: 0.155

Incoming: Which PDI is reported for this compound? CCCCCCCCCCC(O)CN(CCCOC(=O)[C@H](CCc1ccccc1)NC(=O)CCCN(CC(O)CCCCCCCCCC)CC(O)CCCCCCCCCC)CC(O)CCCCCCCCCC (stereo partly drawn) [Compound XCVI]
Outgoing: 0.166

Incoming: Which PDI is reported for this compound? CCCCCCCCCCC(O)CN(CCCNC(=O)CC(C)(C)CC(=O)NCCCN(CC(O)CCCCCCCCCC)CC(O)CCCCCCCCCC)CC(O)CCCCCCCCCC (stereo not drawn) [Compound LXXXVII]
Outgoing: 0.111

Incoming: Which PDI is reported for this compound? CCCCCCCCCCC(O)CN(CCCOC(=O)[C@H](CCc1ccc(O)cc1)NC(=O)CCCN(CC(O)CCCCCCCCCC)CC(O)CCCCCCCCCC)CC(O)CCCCCCCCCC (stereo partly drawn) [Compound C]
Outgoing: 0.093
